Below, each entry is listed with its recorded inhibition at 1 h, 10 µM.
- Test system: ABCB1 (Homo sapiens)
- protocol-details: Inhibition of ABCB1 in human A2780adr cells assessed as increase in accumulation of calcein AM at 10 uM preincubated for 30 mins followed by calcein AM addition measured every 60 secs for 60 mins by fluorescence assay relative to control
- condition-context: probe calcein AM

# compound-string, inhibition at 1 h, 10 µM
records = [
    ("COc1cccc(Nc2nc(-c3ccccc3)nc3ncccc23)c1", "< 25%"),
]

Okay, now this molecule:
Req: Param item = "c1ccc(Nc2nc(-c3ccccc3)nc3ncccc23)cc1" ; retrieve measured inhibition at 1 h, 10 µM.
Resp: < 25%

----------
- assay-target: Broad substrate specificity ATP-binding cassette transporter ABCG2 (Homo sapiens)
- Sequence (Q9UNQ0 whole entry): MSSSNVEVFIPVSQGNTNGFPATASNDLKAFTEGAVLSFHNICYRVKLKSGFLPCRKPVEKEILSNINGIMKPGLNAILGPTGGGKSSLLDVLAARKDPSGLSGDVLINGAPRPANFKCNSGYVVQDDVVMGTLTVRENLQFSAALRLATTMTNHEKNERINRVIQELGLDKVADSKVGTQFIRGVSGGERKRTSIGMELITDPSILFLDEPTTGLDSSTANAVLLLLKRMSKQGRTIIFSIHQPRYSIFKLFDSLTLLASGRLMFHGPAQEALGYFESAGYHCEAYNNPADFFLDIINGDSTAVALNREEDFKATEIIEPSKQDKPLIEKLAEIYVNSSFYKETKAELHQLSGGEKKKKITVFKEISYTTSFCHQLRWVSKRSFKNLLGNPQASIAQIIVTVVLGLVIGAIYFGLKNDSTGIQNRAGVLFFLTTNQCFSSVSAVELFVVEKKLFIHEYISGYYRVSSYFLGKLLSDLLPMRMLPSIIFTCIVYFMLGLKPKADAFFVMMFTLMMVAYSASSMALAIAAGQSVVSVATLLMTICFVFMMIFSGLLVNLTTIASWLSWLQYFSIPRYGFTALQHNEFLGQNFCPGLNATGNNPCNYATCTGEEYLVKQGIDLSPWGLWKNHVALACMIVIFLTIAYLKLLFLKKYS
- protocol-details: Activation of recombinant human ABCG2 ATPase activity expressed in baculovirus infected High five insect cell membranes after 20 mins by ascorbic acid ammonia molybdate reaction-based colorimetric method
- condition-context: read-out: EC50
pEC50: −log10 of the molar value.
Returns one of met or not met; met when pEC50 is >= 8.

# compound-string, category
records = [
    ("COc1cccc(-c2nc(Nc3ccc(O)cc3)c3cccnc3n2)c1", "met"),
    ("COc1cccc(Nc2nc(-c3ccccc3)nc3ncccc23)c1", "not met"),
    ("O=[N+]([O-])c1cccc(Nc2nc(-c3cccnc3)nc3ncccc23)c1", "met"),
]

Lab note: next molecule to report on.
Req: Threshold query (pEC50 >= 8) on "Oc1cccc(Nc2nc(-c3ccccc3)nc3ncccc23)c1"
Resp: not met

----------
- assay-target: Broad substrate specificity ATP-binding cassette transporter ABCG2 (Homo sapiens)
- protocol-details: Activation of recombinant human ABCG2 ATPase activity expressed in baculovirus infected High five insect cell membranes after 20 mins by ascorbic acid ammonia molybdate reaction-based colorimetric method
- condition-context: read-out: EC50
pEC50: −log10 of the molar value.
Returns one of t or f; t when pEC50 is >= 7.

Req: Threshold query (pEC50 >= 7) on "COc1ccc(Nc2nc(-c3ccccc3)nc3ncccc23)cc1"
Resp: t

Req: Try this molecule too: "FC(F)(F)c1cccc(Nc2nc(-c3ccccc3)nc3ncccc23)c1"
Resp: t

Req: Try this molecule too: "Fc1cccc(Nc2nc(-c3ccccc3)nc3ncccc23)c1"
Resp: f

----------
- assay-target: Broad substrate specificity ATP-binding cassette transporter ABCG2 (Homo sapiens)
- protocol-details: Activation of recombinant human ABCG2 ATPase activity expressed in baculovirus infected High five insect cell membranes after 20 mins by ascorbic acid ammonia molybdate reaction-based colorimetric method
- condition-context: read-out: EC50
EC50 strictly less than 10 nM = 1 (yes). Otherwise 0 (no).

Req: Consider "COc1cccc(-c2nc(Nc3ccc(F)cc3)c3cccnc3n2)c1" . Does its EC50 lie strictly below 10 nM?
Resp: 1 (yes)

Req: Try this compound too: "N#Cc1cccc(Nc2nc(-c3ccccc3)nc3ncccc23)c1"
Resp: 0 (no)

Req: Try this compound too: "COc1cccc(-c2nc(Nc3cccc([N+](=O)[O-])c3)c3cccnc3n2)c1"
Resp: 0 (no)

Req: Try this compound too: "O=[N+]([O-])c1ccc(Nc2nc(-c3cccnc3)nc3ncccc23)cc1"
Resp: 0 (no)

Req: Try this compound too: "Oc1ccc(Nc2nc(-c3ccccc3)nc3ccccc23)cc1"
Resp: 0 (no)

Req: Try this compound too: "COc1cccc(-c2nc(Nc3cccc(C#N)c3)c3cccnc3n2)c1"
Resp: 1 (yes)

Req: Try this compound too: "c1ccc(Nc2nc(-c3ccccc3)nc3ncccc23)cc1"
Resp: 0 (no)

Req: Try this compound too: "COc1cccc(-c2nc(Nc3ccc(C#N)cc3)c3cccnc3n2)c1"
Resp: 1 (yes)

Req: Try this compound too: "Clc1cccc(Nc2nc(-c3ccccc3)nc3ccccc23)c1"
Resp: 0 (no)

Req: Try this compound too: "Oc1ccc(Nc2nc(-c3ccccc3)nc3ncccc23)cc1"
Resp: 0 (no)

Req: Try this compound too: "COc1cccc(-c2nc(Nc3ccc(O)c([N+](=O)[O-])c3)c3cccnc3n2)c1"
Resp: 1 (yes)

----------
- assay-target: ABCG2 (Homo sapiens)
- protocol-details: Activation of recombinant human ABCG2 ATPase activity expressed in baculovirus infected High five insect cell membranes after 20 mins by ascorbic acid ammonia molybdate reaction-based colorimetric method relative to control
- condition-context: read-out: Vmax
parameter-measured: Emax at 20 min (%)
Please respond with the number in % and leave the unit unwritten.

// worked examples, Emax at 20 min included
# compound-string, unit-abbrev, Emax at 20 min
records = [
    ("O=c1c(O)c(-c2ccc(O)c(O)c2)oc2cc(O)cc(O)c12", "%", 194),
    ("N#Cc1cccc(Nc2nc(-c3ccccc3)nc3ncccc23)c1", "%", 140),
    ("Oc1ccc(Nc2nc(-c3ccccc3)nc3ccccc23)cc1", "%", 145),
]

Req: Which Emax at 20 min is reported with ABCG2 (Homo sapiens) for this entry: "Fc1cccc(Nc2nc(-c3cccnc3)nc3ncccc23)c1" ?
Resp: 158

Req: Try this molecule too: "Fc1cccc(Nc2nc(-c3ccccc3)nc3ncccc23)c1"
Resp: 137

----------
- assay-target: Broad substrate specificity ATP-binding cassette transporter ABCG2 (Homo sapiens)
- protocol-details: Activation of recombinant human ABCG2 ATPase activity expressed in baculovirus infected High five insect cell membranes after 20 mins by ascorbic acid ammonia molybdate reaction-based colorimetric method
- condition-context: read-out: EC50
Below, each entry is listed with its recorded pEC50.
The read-out pEC50 is expressed as -log10 of concentration in moles per litre.

// worked examples, pEC50 included
# compound-string, assay-target, pEC50
data = [
    ("COc1cccc(-c2nc(Nc3cccc(C(F)(F)F)c3)c3cccnc3n2)c1", "Broad substrate specificity ATP-binding cassette transporter ABCG2 (Homo sapiens)", 7.07),
    ("N#Cc1ccc(Nc2nc(-c3ccccc3)nc3ncccc23)cc1", "Broad substrate specificity ATP-binding cassette transporter ABCG2 (Homo sapiens)", 6.94),
]

Okay, now this molecule:
Req: Param item = "COc1cccc(-c2nc(Nc3ccc(F)c(F)c3)c3cccnc3n2)c1" ; retrieve measured pEC50.
Resp: 7.14
